Value source: patent US20230183322A1

Target: S protein of the novel coronavirus SARS-CoV-2 (SARS-CoV-2, UniProt P0DTC2 14-1273)
Assay: cell-based or functional assay
READOUT NAME: IC50 for neutralizing SARS-CoV-2 pseudovirus (Huh-7 cells, luciferase)

| BINDER | DATA VALUE |
| --- | --- |
| ABU-365 (antibody, V domains shown) VH: EVQLVESGGGLIQPGGSLRLSCAASGVTVSSNYMSWVRQAPGKGLEWVSLIYSGGSTYYADSVKGRFTISRDNSKNTLYLQMNSLRAEDTAVYYCARPIVGARSGMDVWGQGTTVTVSS VL: DIQMTQSPSSLSASVGDRVTITCQASQDINNYLNWYQQKPGKAPKLLIYDASNLETGVPSRFSGSGSGTDFTFIISSLQPEDIATYYCQQHDNLPVTFGGGTKVEIK | < 0.1 µg/mL |

INPUT: IC50 for neutralizing SARS-CoV-2 pseudovirus (Huh-7 cells, luciferase) for ABU-291 (antibody, V domains shown) VH: QIQLVQSGAEVKKPGASVRVSCKASGFTFGRYGITWVRQVPGQGLEWMGWISTYSGNTNYAQNLQGRVTMTTDTSTNTAYMELRSLFFDDTAMYYCAKAVSGWPIYFDAWGQGTLVTVSS VL: EIVMTQSPATLSVSPGERVTLSCRASQSVNRNLAWYQQKPGQAPRLLVYDASTRAPGIPTRVRGSGSGTDFTLTISSLQSEDFAVYYCQQYNNWPPITFGQGTRLEIQ ?
OUTPUT: < 0.5 µg/mL
